# system_under_test: furin, P09958;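 also: purified furin at 1:10 enzyme:substrate in 50 mM HEPES pH 7.5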
# Sequence (P09958 whole entry): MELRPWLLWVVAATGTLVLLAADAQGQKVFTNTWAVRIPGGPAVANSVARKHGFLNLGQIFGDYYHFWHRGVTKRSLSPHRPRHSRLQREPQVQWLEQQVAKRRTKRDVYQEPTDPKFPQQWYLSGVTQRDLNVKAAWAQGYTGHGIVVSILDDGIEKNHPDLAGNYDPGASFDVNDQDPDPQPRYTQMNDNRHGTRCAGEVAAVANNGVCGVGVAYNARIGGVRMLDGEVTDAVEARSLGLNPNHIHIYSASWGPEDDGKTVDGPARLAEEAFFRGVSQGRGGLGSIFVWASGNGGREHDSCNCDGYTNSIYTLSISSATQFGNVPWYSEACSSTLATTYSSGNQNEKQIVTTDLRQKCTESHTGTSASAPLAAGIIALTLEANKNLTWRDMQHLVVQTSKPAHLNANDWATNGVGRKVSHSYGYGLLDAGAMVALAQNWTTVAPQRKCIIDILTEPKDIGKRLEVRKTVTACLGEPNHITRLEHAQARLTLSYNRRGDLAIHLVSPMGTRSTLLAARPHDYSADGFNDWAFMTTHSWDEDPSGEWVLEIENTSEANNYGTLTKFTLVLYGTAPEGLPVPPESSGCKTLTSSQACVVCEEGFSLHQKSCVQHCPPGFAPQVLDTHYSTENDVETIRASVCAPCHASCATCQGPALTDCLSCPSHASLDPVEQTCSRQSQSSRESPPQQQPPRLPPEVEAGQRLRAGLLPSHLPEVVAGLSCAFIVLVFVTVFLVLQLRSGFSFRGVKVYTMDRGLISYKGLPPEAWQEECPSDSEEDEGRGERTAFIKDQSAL
# test: furin cleavage Z-score vs untreated control; higher = more cleavage, active = 3.5 or more, inactive = 1 or less, 8 variable residues between constant flanks
# particulars: 7.5 min
This is one part of the list. The true hit rate is not given.
Lab note: compare furin cleavage Z-score against 0.2. Equal or greater, write y. Smaller, write n.

Answered examples (3):
[
  {
    "construct_sequence": "CASGFVSLLAAGNASASA [HC359]",
    "qualitative_label": "n"
  },
  {
    "construct_sequence": "CALRHHNLVYAGNASASA [HC1386]",
    "qualitative_label": "y"
  },
  {
    "construct_sequence": "CARARRHAADAGNASASA [FS-2648]",
    "qualitative_label": "y"
  }
]

# check: furin cleavage Z-score of CAVAHLHAPTAGNASASA [HC773] is greater than or equal to 0.2
n

# check: furin cleavage Z-score of CARARRFAQIAGNASASA [FS-2644] is greater than or equal to 0.2
y

# check: furin cleavage Z-score of CAYLVAYQATAGNASASA [HC953] is greater than or equal to 0.2
n

# check: furin cleavage Z-score of CAREECSQHLAGNASASA [HC1673] is greater than or equal to 0.2
y

# check: furin cleavage Z-score of CARARRFSGLAGNASASA [FS-1683] is greater than or equal to 0.2
n

# check: furin cleavage Z-score of CAICTTPCSGAGNASASA [HC1944] is greater than or equal to 0.2
n

# check: furin cleavage Z-score of CAGGGRTRREAGNASASA [FS-427] is greater than or equal to 0.2
y

# check: furin cleavage Z-score of CASTKVPAAYAGNASASA [HC779] is greater than or equal to 0.2
n

# check: furin cleavage Z-score of CADYEVVTSTAGNASASA [HC2289] is greater than or equal to 0.2
y
